assay: inhibitors of E-selectin induction by TNFa, primary screen, imaging, HUVEC, immunofluorescence, MLSMR starter and 10KST1 sets (AID 487); settings: HUVEC TNFalpha-induced E-selectin immunofluorescence imaging, at 2 µM; stronger effect = higher value;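 also: signal is fraction of cell area covered by stained E-selectin grains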
Consider the following compounds and their measured inhibition readings.
Your answer is read as %, so omit the unit and give the number.

These recorded examples may help you get a feel for the data.
CCOc1ccc2nc(NC(NC(C)=O)(C(=O)OC)C(F)(F)F)sc2c1 (configuration not stated)	-54.7
CC(CCc1ccccc1)NC(=O)C1CCCN(c2nnc(-n3cccc3)s2)C1 (configuration not stated)	-42.8
Cc1ccc(N2CCN(S(=O)(=O)N(C)C)CC2)c(C)c1	-55.1

Query: inhibition; subject: O=C(Nc1cccc(O)c1)c1ccccc1
-32.9

Query: inhibition; subject: Cc1cc(NC(=O)CCC(=O)N(c2cccnc2)C(C(=O)NC2CCCC2)c2ccccc2F)no1 (configuration not stated)
-19.7

Query: inhibition; subject: CNC(=O)c1ccsc1NC(=O)CN1C(=O)CCC1=O
4.8

Query: inhibition; subject: CC(C)OCCCn1c(=N)c(C(N)=S)cc2c(=O)n3ccccc3nc21
-3

Query: inhibition; subject: Cc1nnc(SCC(=O)N2CC(=O)Nc3ccccc32)n1-c1ccccc1
-190

Query: inhibition; subject: CCOc1ccc(C2C(C#N)=C(N)Oc3cc(C)n(Cc4ccco4)c(=O)c32)cc1OC (configuration not stated)
-11.3

---

assay: DUSP6 inhibitors restoring Erk phosphorylation by chemical complementation, primary imaging in DUSP6-transfected HeLa (AID 609); conditions: HeLa MKP-3 transfected, phospho-Erk imaging KS statistic; measured here: nuclear pErk red intensity z-score; at 10 µM; stronger effect = higher value; cells stimulated with TPA for 15 min
Please note: class 1 applies when z-score is -0.4 or greater, and class 0 applies otherwise.

Here are 2 compounds together with their reported answers.
CCOC(=O)CCNc1n[nH]c(=O)[nH]c1=O	class 0
C=CCn1c(C2CC(=O)N(c3ccc(C)cc3)C2)nc2ccccc21 (stereo unspecified)	class 1

For the next question, use this compound.
Quick check: does N#Cc1nc(-c2cccs2)oc1NCc1ccc2c(c1)OCO2 have z-score greater than or equal to -0.4?
class 1

---

biological target: Voltage-gated potassium channel subunit beta-2 (Rattus norvegicus); test: KvBeta positive modulators, primary screen, biochemical, NADPH fluorescence (AID 623); conditions: Recombinant KvBeta, NADPH fluorescence decrease slope, 10 min; at 10 µM; stronger effect = lower value;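 also: fluorescence intensity change per second fitted from 20 to 320 s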
reported property: NADPH fluorescence slope
Reply with the value as a number alone.

CCCCSc1nnc(-c2ccc(NC(C)=O)cc2)n1C	-3e-05

Query: NADPH fluorescence slope; subject: Cc1cc(=O)oc(C)c1C(=O)NCCC1=CCCCC1
-3.7e-05

Query: NADPH fluorescence slope; subject: Cn1c(=O)c2c(nc(N3CCC(C(N)=O)CC3)n2CCSc2nc3ccccc3s2)n(C)c1=O
-6.4e-05

Query: NADPH fluorescence slope; subject: COc1ccc(Oc2nc(Oc3ccc(OC)cc3)nc(Oc3ccc(OC)cc3)n2)cc1
-1.9e-06

Query: NADPH fluorescence slope; subject: CCSc1nncn1/N=C/c1ccc(OC)c(OC)c1
2e-05

---

target: Voltage-gated potassium channel subunit beta-2 (Rattus norvegicus) (UniProt P62483); assay: KvBeta positive modulators, primary screen, biochemical, NADPH fluorescence (AID 623); settings: Recombinant KvBeta, NADPH fluorescence decrease slope, 10 min; at 10 µM; stronger effect = lower value;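 also: fluorescence intensity change per second fitted from 20 to 320 s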
Sequence (P62483 whole entry, looked up): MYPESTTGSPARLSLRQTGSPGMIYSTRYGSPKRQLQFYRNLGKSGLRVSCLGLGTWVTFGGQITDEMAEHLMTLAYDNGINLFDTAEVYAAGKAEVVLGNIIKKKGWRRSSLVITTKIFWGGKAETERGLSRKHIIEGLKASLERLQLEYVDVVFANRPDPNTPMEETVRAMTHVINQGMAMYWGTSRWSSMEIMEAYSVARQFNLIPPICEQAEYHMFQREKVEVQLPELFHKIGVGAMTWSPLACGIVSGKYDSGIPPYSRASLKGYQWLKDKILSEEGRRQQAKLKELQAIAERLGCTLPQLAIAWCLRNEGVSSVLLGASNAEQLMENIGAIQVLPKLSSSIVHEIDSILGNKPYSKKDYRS
Consider the following compounds and their measured NADPH fluorescence slope readings.
Reply with the value as a number alone.

These recorded examples may help you get a feel for the data.
O=P1(O)C=C(c2ccccc2)NC(c2ccccc2)=C1	-5e-07
COc1cccc(C2CC(c3ccccc3Cl)n3nc(N)nc3N2)c1 (stereo unspecified)	-7.1e-05
O=C1CC(NCc2ccncc2)C(=O)N1c1ccc(Cl)cc1 (stereo unspecified)	-3.3e-05
CCOC(=O)C(NC(=O)c1ccc(OC)cc1)(N1CCOCC1)C(F)(F)F (stereo unspecified)	-4.2e-05

What measured NADPH fluorescence slope is associated with N#Cc1c(NC(NC(=O)c2ccco2)C(=O)c2ccccc2)sc2c1CCCC2 (stereo unspecified) on Voltage-gated potassium channel subunit beta-2 (Rattus norvegicus) (UniProt P62483)?
9.4e-06

What measured NADPH fluorescence slope is associated with CCCc1cc(C(=O)Nc2ccccc2SC)no1 on Voltage-gated potassium channel subunit beta-2 (Rattus norvegicus) (UniProt P62483)?
-2.4e-05

What measured NADPH fluorescence slope is associated with CCn1c(=O)c(=O)[nH]c2cc(C(=O)N3CCN(c4ccccc4F)CC3)ccc21 on Voltage-gated potassium channel subunit beta-2 (Rattus norvegicus) (UniProt P62483)?
-3e-05

What measured NADPH fluorescence slope is associated with CCOC(=O)CNC(=O)Nc1nnc(-c2ccc(OCC)cc2)o1 on Voltage-gated potassium channel subunit beta-2 (Rattus norvegicus) (UniProt P62483)?
2.1e-05

What measured NADPH fluorescence slope is associated with CCOc1cccc(NC(=O)C2CC(=O)NC(=Nc3ccccc3)S2)c1 (stereo unspecified) on Voltage-gated potassium channel subunit beta-2 (Rattus norvegicus) (UniProt P62483)?
-1.8e-05

What measured NADPH fluorescence slope is associated with COc1ccc(C2CC(c3ccccc3)Nc3nc(N)nn32)cc1 (stereo unspecified) on Voltage-gated potassium channel subunit beta-2 (Rattus norvegicus) (UniProt P62483)?
-1.6e-05

What measured NADPH fluorescence slope is associated with COc1ccccc1-n1c(N)c(C(=O)NCC2CCCO2)c2nc3ccccc3nc21 (stereo unspecified) on Voltage-gated potassium channel subunit beta-2 (Rattus norvegicus) (UniProt P62483)?
2e-05
